All figures here come from PubChem BioAssay (NCI).

- System: UO-31 renal
- ASSAY_EXPLANATION: NCI-60 one-dose screen, 48 h (100 = growth as untreated, 0 = no growth, -100 = all killed)
- STUDY_CONDITIONS: 10 µM unless noted
About 83,000 compounds went through this panel and 20% of them were active in at least one assay; those are over-represented in the sample as a whole.

{"COMPOUND": "COC(=O)CC[C@@H]1O[C@@H](c2ccc(F)cc2)[C@@H](O)[C@H]1O", "TARGET_DESC": "UO-31 renal", "UNIT_SYMBOL": "%", "growth": 94}
{"COMPOUND": "CCN1C(=O)N(CC)C2C1NC(=S)N2/N=C/c1ccc(C(F)(F)F)cc1 (centres undefined)", "TARGET_DESC": "UO-31 renal", "UNIT_SYMBOL": "%", "growth": 62.3}
{"COMPOUND": "CN1C(=O)/C(=C2\\SC(=Nc3ccccc3)N(Nc3ccccc3)C2=O)c2ccccc21", "TARGET_DESC": "UO-31 renal", "UNIT_SYMBOL": "%", "growth": 61.4}
{"COMPOUND": "O=C(Nc1ncc(Cc2ccccc2)s1)c1ccc2c(c1)OCCCO2", "TARGET_DESC": "UO-31 renal", "UNIT_SYMBOL": "%", "growth": 48.1}
{"COMPOUND": "O=C(CCCCCCN1CC(=O)N2[C@H](c3ccc(Br)cc3)c3[nH]c4ccccc4c3C[C@@H]2C1=O)NO", "TARGET_DESC": "UO-31 renal", "UNIT_SYMBOL": "%", "growth": 58.8}
{"COMPOUND": "O=C1/C(=C\\c2ccccn2)c2ccccc2N1c1c(Cl)cccc1Cl", "TARGET_DESC": "UO-31 renal", "UNIT_SYMBOL": "%", "growth": 16.8}
{"COMPOUND": "Cc1cc(Nc2ccc(C(=O)N3CCCC3)cc2)nc(NCCCNc2ccnc3cc(Cl)ccc23)n1", "TARGET_DESC": "UO-31 renal", "UNIT_SYMBOL": "%", "growth": 86.7}
{"COMPOUND": "COc1cc(/C=C2\\CN(S(=O)(=O)c3ccccc3)C/C(=C\\c3cc(CN4CCCCC4)c(O)c(OC)c3)C2=O)cc(CN2CCCCC2)c1O", "TARGET_DESC": "UO-31 renal", "UNIT_SYMBOL": "%", "growth": -96.6}
{"COMPOUND": "Cn1cc(-c2ccc(-c3cn(C)c4ccc(Cl)cc34)[nH]2)c2cc(Cl)ccc21", "TARGET_DESC": "UO-31 renal", "UNIT_SYMBOL": "%", "growth": -93.1}

---

- Test system: K-562 leukemia
- ASSAY_EXPLANATION: NCI-60 one-dose screen, 48 h
- STUDY_CONDITIONS: 10 µM unless noted
- Procedure: Cells are grown in 96 well plates and exposed to the test compound for 48 hours. Compounds are tested at a single concentration, which is 10^-5 M for most compounds. The reported endpoint is percent growth (GI% or GIPRCNT), where numbers from 0 - 100% represent growth inhibition, and numbers from -100% - 0 represent cell death. For example, a value of 40 represents 60% growth inhibition. A value of 0 means no net growth occurred over the course of the experiment. […]
This is part of a sample that, as a whole, favours compounds with a hit. Of some 83,000 tested, about 20% had one in any assay. Calls of active or inactive are those of the source. Rule for the calls: active = growth percent below 10; inactive = the rest.
Outcomes: yes (1) = active, no (0) = inactive

{"COMPOUND": "CC1=C(CCC(C)NCc2ccc(OCCCN3CCCCC3)cc2)C(C)(C)CCC1 (centres undefined)", "TARGET_DESC": "K-562 leukemia", "CATEGORY_LABEL": "yes (1)"}
{"COMPOUND": "CNC(=O)c1cc(Oc2ccc3c(c2)sc2nc(-c4ccc(OC)cc4)cn23)ccn1", "TARGET_DESC": "K-562 leukemia", "CATEGORY_LABEL": "no (0)"}
{"COMPOUND": "COc1ccc(/C=C/c2ccc3ccccc3n2)c(OC)c1", "TARGET_DESC": "K-562 leukemia", "CATEGORY_LABEL": "no (0)"}
{"COMPOUND": "C#CCO[C@H]1CC(CC#C)(CC#C)C(=O)[C@@H]2[C@H]1[C@H]1C[C@@H]3[C@@]4(C)CCC[C@@](C)(C(=O)OC)[C@@H]4CC[C@@]23C=C1C(C)C", "TARGET_DESC": "K-562 leukemia", "CATEGORY_LABEL": "no (0)"}
{"COMPOUND": "Cc1ccc(S(=O)(=O)OCCCOS(=O)(=O)c2ccc(C)cc2)cc1", "TARGET_DESC": "K-562 leukemia", "CATEGORY_LABEL": "no (0)"}
{"COMPOUND": "CS(=O)(=O)Nc1cc(-c2ccc3ncc(C#N)c(Nc4ccc(F)c(Cl)c4)c3c2)cnc1Cl", "TARGET_DESC": "K-562 leukemia", "CATEGORY_LABEL": "no (0)"}
{"COMPOUND": "C/C=C(/C)n1cnc2c(Nc3ccccn3)nc(Cl)nc21", "TARGET_DESC": "K-562 leukemia", "CATEGORY_LABEL": "no (0)"}
{"COMPOUND": "C=C1C(=O)O[C@H]2[C@H]1CC/C(COC(=O)CSCSCC(=O)OC/C1=C/CC[C@@]3(C)O[C@H]3[C@H]3OC(=O)C(=C)[C@@H]3CC1)=C\\CC[C@@]1(C)O[C@@H]21", "TARGET_DESC": "K-562 leukemia", "CATEGORY_LABEL": "yes (1)"}
{"COMPOUND": "O=S1(=O)C=C(c2ccccc2)C(c2ccccc2)=C1", "TARGET_DESC": "K-562 leukemia", "CATEGORY_LABEL": "yes (1)"}
{"COMPOUND": "COC(=O)CCC/C=C\\C[C@H]1C=CC(=O)/C1=C/C[C@@H](O)C/C=C\\CC(F)(F)F", "TARGET_DESC": "K-562 leukemia", "CATEGORY_LABEL": "yes (1)"}
{"COMPOUND": "C[n+]1ccc(CCc2c[nH]c3ccccc23)cc1", "TARGET_DESC": "K-562 leukemia", "CATEGORY_LABEL": "no (0)"}
{"COMPOUND": "CN1CCN(CC(=O)Nc2ccc3ncnc(Nc4ccc(Oc5cccc(C(F)(F)F)c5)c(Cl)c4)c3c2)CC1", "TARGET_DESC": "K-562 leukemia", "CATEGORY_LABEL": "yes (1)"}
{"COMPOUND": "Cc1cc(Nc2ccc(C(=O)N3CCCC3)cc2)nc(NCCCNc2ccnc3cc(Cl)ccc23)n1", "TARGET_DESC": "K-562 leukemia", "CATEGORY_LABEL": "no (0)"}
{"COMPOUND": "C#COc1cccc(Nc2ncnc3cc(NC(=O)[C@@H](C)Cl)ccc23)c1", "TARGET_DESC": "K-562 leukemia", "CATEGORY_LABEL": "yes (1)"}
{"COMPOUND": "Cc1cn(-c2cc(NC(=O)c3cncc(C#Cc4c(N)ncc5ccc(F)cc45)c3)cc(C(F)(F)F)c2)cn1", "TARGET_DESC": "K-562 leukemia", "CATEGORY_LABEL": "yes (1)"}
{"COMPOUND": "COc1ccc(C#Cc2ccc(=O)oc2-c2cc(OC)c(OC)c(OC)c2)cc1O", "TARGET_DESC": "K-562 leukemia", "CATEGORY_LABEL": "no (0)"}
{"COMPOUND": "COc1cccc(/C=C/C(=O)c2cccc(Nc3nc(Nc4ccccc4)nc(Nc4ccccc4)n3)c2)c1", "TARGET_DESC": "K-562 leukemia", "CATEGORY_LABEL": "no (0)"}
{"COMPOUND": "O=C(c1c[nH]c2ccccc12)c1n[nH]c(=S)n1-c1cccc(Br)c1", "TARGET_DESC": "K-562 leukemia", "CATEGORY_LABEL": "no (0)"}
{"COMPOUND": "CCN1CCN(CC(=O)Nc2nc3ccc(NCc4ccc(F)cc4)cc3s2)CC1", "TARGET_DESC": "K-562 leukemia", "CATEGORY_LABEL": "no (0)"}
